# conditions_used: 308.15 K; 100 kPa; Liquid; Falling or rolling sphere viscometry
Numbers after ± are expanded uncertainties.
reported_property: viscosity
Entry format: amount then unit.

Which viscosity value belongs to `CCCCO` ?
1.998 ± 0.025 mPa·s

And `CCO` ?
0.901 ± 0.011 mPa·s

And `CCCCCO` ?
2.662 ± 0.034 mPa·s

And `CCCO` ?
1.549 ± 0.019 mPa·s

---

# conditions_used: 298.15 K; 100 kPa; Liquid; Falling or rolling sphere viscometry
± gives the expanded uncertainty stated by the source.
Provide the reported viscosity of each item.
Entry format: amount then unit.

Which viscosity value belongs to `CCCCCO` ?
3.502 ± 0.044 mPa·s

And `CCCO` ?
1.943 ± 0.024 mPa·s

And `CCCCO` ?
2.568 ± 0.032 mPa·s

And `CCO` ?
1.083 ± 0.013 mPa·s

---

# conditions_used: 308.15 K; 100 kPa; Liquid; Vibrating tube method
Numbers after ± are expanded uncertainties.
Provide the reported mass density of each item.

Which mass density value belongs to `CCO` ?
776.4 ± 0.78 kg/m3

And `CCCO` ?
792.76 ± 0.8 kg/m3

And `CCCCO` ?
798.06 ± 0.81 kg/m3

And `CCCCCO` ?
803.5 ± 0.82 kg/m3

---

Provide the reported mass density of each item.
# conditions_used: 298.15 K; 100 kPa; Liquid; Vibrating tube method
All answers are understood in kg/m3, so give the number only.

Which mass density value belongs to `CCO` ?
785.06

And `CCCCO` ?
805.75

And `CCCCCO` ?
810.88

And `CCCO` ?
799.69

---

# conditions_used: 318.15 K; 100 kPa; Liquid; Falling or rolling sphere viscometry
Provide the reported viscosity of each item.
All answers are understood in mPa·s, so give the number only.

Which viscosity value belongs to `CCCCCO` ?
2.061

And `CCCCO` ?
1.578

And `CCCO` ?
1.252

And `CCO` ?
0.758

---

# measurement_notes: refractive index (Na D-line) (dimensionless)
# conditions_used: 308.15 K; 100 kPa; Liquid; Standard Abbe refractometry
± gives the expanded uncertainty stated by the source.
Provide the reported refractive index of each item.

Which refractive index value belongs to CCCCCO [pentan-1-ol] ?
1.40352 ± 0.00033

And CCCCO [butan-1-ol] ?
1.39281 ± 0.00031

And CCO [ethanol] ?
1.35501 ± 0.00031

And CCCO [propan-1-ol] ?
1.37857 ± 0.00032

---

Provide the reported refractive index of each item.
# measurement_notes: refractive index (Na D-line) (dimensionless)
# conditions_used: 298.15 K; 100 kPa; Liquid; Standard Abbe refractometry
Provide a numeric answer; units are not to be included.

Which refractive index value belongs to CCO [ethanol] ?
1.35905

And CCCCO [butan-1-ol] ?
1.39697

And CCCO [propan-1-ol] ?
1.38275

And CCCCCO [pentan-1-ol] ?
1.40752

---

Provide the reported speed of sound of each item.
# conditions_used: 318.15 K; 100 kPa; Liquid; Sing-around technique in a fixed-path interferometer
All answers are understood in m/s, so give the number only.

Which speed of sound value belongs to `CCCCO` ?
1173

And `CCO` ?
1075

And `CCCCCO` ?
1209

And `CCCO` ?
1141

Reference source: the NIST ThermoML archive (doi:10.1021/acs.jced.6b00563)
